Assay: Elimination rate constant in healthy human plasma at 400 mg, po administered as single dose measured after 120 hrs
Type: ADME, organism-based
attributeMeasured: k el at 120 h (s⁻¹)
One number for each entry, in s⁻¹.

# k el at 120 h lookup, item `CC[C@H]1OC(=O)[C@H](C)C(=O)[C@H](C)[C@@H](O[C@@H]2O[C@H](C)C[C@H](N(C)C)[C@H]2O)[C@@]2(C)C[C@@H](C)/C(=N\C(C)=O)[C@H](C)[C@@H](OC/C(=N\OCc3ccc(-n4cccn4)nc3)CO2)[C@]1(C)O` 1.22e-05

====

Test: Apparent volume of distribution in healthy human plasma at 400 mg, po administered as single dose measured after 120 hrs
Assay type: ADME, organism-based
attributeMeasured: Vd/F (L)
One number for each entry, in L.

# Vd/F lookup, item CC[C@H]1OC(=O)[C@H](C)C(=O)[C@H](C)[C@@H](O[C@@H]2O[C@H](C)C[C@H](N(C)C)[C@H]2O)[C@@]2(C)C[C@@H](C)/C(=N\C(C)=O)[C@H](C)[C@@H](OC/C(=N\OCc3ccc(-n4cccn4)nc3)CO2)[C@]1(C)O [MODITHROMYCIN] 635

Where do these numbers come from? They come from ChEMBL document CHEMBL1649161.
